# PROCEDURE DETAILS: Cytotoxicity against African green monkey Vero cells assessed as reduction in cell viability incubated for 72 hrs by MTT assay
# Assay type: toxicity, cell-based
# CONDITION INFO: chlorocebus sabaeus
MEASURED ENDPOINT: CC50 at 72 h (µM)
Report as a plain number; the unit µM is understood.

Answered examples (4):
COMPOUND	RECORDED RESULT
CSCSc1nc(Cc2c(Cl)cccc2Cl)cc(=O)[nH]1	48.1
Cc1cc(C)cc(OCCSc2nc(Cc3ccccc3)cc(=O)[nH]2)c1	72.9
CSCSc1nc(Cc2c(F)cccc2Cl)cc(=O)[nH]1	55.3
Cc1cc(C)cc(OCCSc2nc(Cc3c(F)cccc3F)cc(=O)[nH]2)c1	90

Shifting focus to the compound that follows.
Q. State, in one line, measured CC50 at 72 h of Cc1c(Sc2ccccc2)n(COCCO)c(=O)[nH]c1=O [HEPT]
A. 740

Attribution: ChEMBL document CHEMBL6115028
